Consider the following variants and their measured yeast fitness readings.
B1: tRNA (parent)
chain: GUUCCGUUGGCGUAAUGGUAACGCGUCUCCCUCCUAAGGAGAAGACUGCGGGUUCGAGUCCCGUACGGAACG

variants of: B1; assay: yeast fitness relative to wild type (ratio to wild type); higher = fitter; tRNA-Arg(CCU), competitive growth, 37 C, YPD
Fewer inactive variants are shown than the library holds.

Sequence: GUUACGUUGGCGUUAUGGUCACGCGUCGCCCUCCUAAGGAGAAGACUGCGGGUUCGACUCACGUACGGAACG
Comparison Symbol: ≤
yeast fitness: 0.5
//
Sequence: GUUCCGUUGGCGUAAUGGUAACGCGUCUCCCUCUUAAGGAGAAGACUGCGGGUUCGACUCCCGUACGGAACG
Comparison Symbol: =
yeast fitness: 0.757
//
Sequence: GUUCCGUUGACGAAAUGGUAACGAGUCUCCCUCCUAAGGAGAAGACUGCGGGUUCGAGUCCCGUACGGAACG
Comparison Symbol: =
yeast fitness: 0.582
//
Sequence: GUUCCGUUGACGUAACGGUAACGCGUCUCCCUCCUAAGGAGAAGACUGCGGGUUCGAGUCCCGUACGGAACG
Comparison Symbol: =
yeast fitness: 0.777
//
Sequence: GUUCCGUUGGCGUAAUGGUAACGCGUCUCCCUCCGAAAGAGAAGACUGCGGCUUCGAGUCCCGUACGGAACG
Comparison Symbol: =
yeast fitness: 0.678
//
Sequence: GUUCCGUUGGCGUAAUGGUAACGCGUCUCCCUCCUAAGGAGAACACUGCGGGUUCGAGUCCUGUAGGGAACG
Comparison Symbol: ≤
yeast fitness: 0.5
//
Sequence: GUUCCGUUGGCGUAAUGGUAACGCGUCUCCCUCGUACGGAGAAGACUGCGGGUUCGAGUCCCGUACGGAACG
Comparison Symbol: =
yeast fitness: 0.554
//
Sequence: GUUCCGUUGAAGUAAUGGUAACGCGUCUACCUCCUAAGGAGAAGCCUGCGGGUUCGAGUCCCGUACGGUACG
Comparison Symbol: ≤
yeast fitness: 0.5
//
Sequence: GUUCCGUUGGCGUAAUGGUAACGCGUGUCCCUCCUAGGGAGAAGACUGCGGGUUCGAGUCCCGAACGGAACG
Comparison Symbol: ≤
yeast fitness: 0.5
//
Sequence: GGUCCGUUGGAGUAAUGGUAACGAGACUCCCUCCUAAGGAGAACACUGCGGGUUCGAGUCCCGUACGAAACG
Comparison Symbol: ≤
yeast fitness: 0.5
//
Sequence: GUUCCGUUGGCGUAAUGGUAACGCGUCUCCCCCCUAAGGAGAAGAUUGCGGGUUCGAGUCCCGUACGGAACG
Comparison Symbol: =
yeast fitness: 0.862
